Provenance of the data: paper PMC8053128

target: the molecule itself; assay: SEC; elution of purified point mutants compared with WT MtrR (Supplementary Figure S4); S200 column named in the purification
Each record here notes measured stoichiometry N.
Please give only the number in your answer, with no unit.

>>> result_number("MtrR(R44A) (natural protein, Neisseria gonorrhoeae, MtrR of Neisseria gonorrhoeae, point mutant; Made by site-directed mutagenesis of the mtrR-pMCSG7 construct; source: expressed from the pMCSG7 vector, purified (Ni-NTA, TEV cleavage, Ni-NTA, S200 size exclusion); not shown: His6, N-terminal, cleaved) MRKTKTEALKTKEHLMLAALETFYRKGIARTSLNEIAQAAGVTAGALYWHFKNKEDLFDALFQRICDDIENCIAQDAADAEGGSWTVFRHTLLHFFERLQSNDIHYKFHNILFLKCEHTEQNAAVIAIARKHQAIWREKITAVLTEAVENQDLADDLDKETAVIFIKSTLDGLIWRWFSSGESFDLGKTAPRIIGIMMDNLENHPCLRRK")
2
>>> result_number("MtrR(G45A) (natural protein, Neisseria gonorrhoeae, MtrR of Neisseria gonorrhoeae, point mutant; Made by site-directed mutagenesis of the mtrR-pMCSG7 construct; source: expressed from the pMCSG7 vector, purified (Ni-NTA, TEV cleavage, Ni-NTA, S200 size exclusion); not shown: His6, N-terminal, cleaved) MRKTKTEALKTKEHLMLAALETFYRKGIARTSLNEIAQAAGVTRAALYWHFKNKEDLFDALFQRICDDIENCIAQDAADAEGGSWTVFRHTLLHFFERLQSNDIHYKFHNILFLKCEHTEQNAAVIAIARKHQAIWREKITAVLTEAVENQDLADDLDKETAVIFIKSTLDGLIWRWFSSGESFDLGKTAPRIIGIMMDNLENHPCLRRK")
2
>>> result_number("MtrR(W49F) (natural protein, Neisseria gonorrhoeae, MtrR of Neisseria gonorrhoeae, point mutant; Made by site-directed mutagenesis of the mtrR-pMCSG7 construct; source: expressed from the pMCSG7 vector, purified (Ni-NTA, TEV cleavage, Ni-NTA, S200 size exclusion); not shown: His6, N-terminal, cleaved) MRKTKTEALKTKEHLMLAALETFYRKGIARTSLNEIAQAAGVTRGALYFHFKNKEDLFDALFQRICDDIENCIAQDAADAEGGSWTVFRHTLLHFFERLQSNDIHYKFHNILFLKCEHTEQNAAVIAIARKHQAIWREKITAVLTEAVENQDLADDLDKETAVIFIKSTLDGLIWRWFSSGESFDLGKTAPRIIGIMMDNLENHPCLRRK")
2

Now for a further protein.
Give the reported stoichiometry N for this protein. MtrR(W49A) (natural protein, Neisseria gonorrhoeae, MtrR of Neisseria gonorrhoeae, point mutant; Made by site-directed mutagenesis of the mtrR-pMCSG7 construct; source: expressed from the pMCSG7 vector, purified (Ni-NTA, TEV cleavage, Ni-NTA, S200 size exclusion); not shown: His6, N-terminal, cleaved) MRKTKTEALKTKEHLMLAALETFYRKGIARTSLNEIAQAAGVTRGALYAHFKNKEDLFDALFQRICDDIENCIAQDAADAEGGSWTVFRHTLLHFFERLQSNDIHYKFHNILFLKCEHTEQNAAVIAIARKHQAIWREKITAVLTEAVENQDLADDLDKETAVIFIKSTLDGLIWRWFSSGESFDLGKTAPRIIGIMMDNLENHPCLRRK
2
